- measurementTarget: μ-opioid receptor (Rattus norvegicus, UniProt P33535)
- Construct: from tissue; host or cells: rat (Wistar) forebrain homogenate, particulate preparation
- Sequence (P33535 whole entry): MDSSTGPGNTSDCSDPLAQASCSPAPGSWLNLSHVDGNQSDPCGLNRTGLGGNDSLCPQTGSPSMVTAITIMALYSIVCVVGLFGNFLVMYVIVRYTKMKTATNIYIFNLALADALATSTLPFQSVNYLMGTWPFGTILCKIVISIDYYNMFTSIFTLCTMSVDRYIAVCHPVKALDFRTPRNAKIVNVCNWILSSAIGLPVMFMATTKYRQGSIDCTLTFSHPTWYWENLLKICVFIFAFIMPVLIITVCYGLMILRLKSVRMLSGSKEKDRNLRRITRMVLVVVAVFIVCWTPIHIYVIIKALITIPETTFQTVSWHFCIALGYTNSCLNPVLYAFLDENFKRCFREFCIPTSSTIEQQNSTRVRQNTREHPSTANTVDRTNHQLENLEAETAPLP
- assay: Rat brain μ-opioid receptor binding assay ([3H]DAMGO)
Reported Ki values for the following molecules.
Return type: number; implicit unit µM.

Example results:
CCN(CC)C(=O)c1ccc(N(Cc2ccccc2F)C2CN3CCC2CC3)cc1 (stereo not drawn): 1.16
CCN(CC)C(=O)c1ccc(N(Cc2ccccc2)[C@@H]2CN3CCC2CC3)cc1: 2.55
CCN(CC)C(=O)c1ccc(N(Cc2ccccc2)[C@H]2CN3CCC2CC3)cc1: 1.24

Lab note: CCN(CC)C(=O)c1ccc(N(Cc2cccc(F)c2)C2CN3CCC2CC3)cc1 (stereo not drawn) gave Ki of 1.12

Documented Ki of CCN(CC)C(=O)c1ccc(N(Cc2cccc(Cl)c2)C2CN3CCC2CC3)cc1 (stereo not drawn) : 0.914

Kindly note the recorded Ki for CCN(CC)C(=O)c1ccc(N(Cc2ccccc2)C2CN3CCC2CC3)cc1 (stereo not drawn) , which is 1.92

###

- measurementTarget: δ-opioid receptor (Rattus norvegicus, UniProt P33533)
- Construct: from tissue; host or cells: rat (Wistar) forebrain homogenate, particulate preparation
- Sequence (P33533 whole entry): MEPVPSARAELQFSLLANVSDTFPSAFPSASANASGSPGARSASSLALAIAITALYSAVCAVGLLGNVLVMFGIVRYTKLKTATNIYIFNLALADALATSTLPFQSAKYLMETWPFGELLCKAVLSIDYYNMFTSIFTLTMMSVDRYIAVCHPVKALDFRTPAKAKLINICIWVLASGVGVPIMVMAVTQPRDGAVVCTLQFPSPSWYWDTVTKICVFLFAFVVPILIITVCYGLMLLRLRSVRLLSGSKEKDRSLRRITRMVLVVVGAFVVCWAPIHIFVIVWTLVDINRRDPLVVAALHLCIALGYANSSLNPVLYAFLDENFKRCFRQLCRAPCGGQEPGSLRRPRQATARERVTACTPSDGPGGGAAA
- assay: Rat brain δ-opioid receptor binding assay ([3H]DPDPE)
Known Ki of a selection of molecules
Give just the number in µM; leave the unit off.

Sample answers from the record:
CCN(CC)C(=O)c1ccc(N(Cc2cccc(Cl)c2)C2CN3CCC2CC3)cc1 (stereo not drawn) [Compound 17]: 0.021
CCN(CC)C(=O)c1ccc(N(Cc2ccccc2)C2CN3CCC2CC3)cc1 (stereo not drawn) [Compound 16]: 0.05

Looking up CCN(CC)C(=O)c1ccc(N(Cc2ccccc2F)C2CN3CCC2CC3)cc1 (stereo not drawn) [Compound 18] , I found its Ki recorded as 0.039

Entry under test: CCN(CC)C(=O)c1ccc(N(Cc2cccc(F)c2)C2CN3CCC2CC3)cc1 (stereo not drawn) [Compound 19] . Its Ki was 0.0055

Measured Ki of CCN(CC)C(=O)c1ccc(N(Cc2ccccc2)[C@@H]2CN3CCC2CC3)cc1 [Compound 21] : 0.02

Documented Ki of CCN(CC)C(=O)c1ccc(N(Cc2ccccc2)[C@H]2CN3CCC2CC3)cc1 [Compound 20] : 0.011

###

- System: acetylcholine bromide-induced abdominal constriction response
- assay: Mouse acetylcholine bromide-induced abdominal constriction assay (MAIT)
- Assay type: in vivo
- conditionSummary: 150 μmole/Kg p.o., acetylcholine bromide 5.5 mg/kg i.p. 30 min later
measurementKind: MAIT % Inhibition (%)
Entry rule: numbers only, all in %.

// below: answered compounds
CCN(CC)C(=O)c1ccc(N(Cc2ccccc2)C2CN3CCC2CC3)cc1 (stereo not drawn): 50
CCN(CC)C(=O)c1ccc(N(Cc2ccccc2)[C@@H]2CN3CCC2CC3)cc1: 35.720
CCN(CC)C(=O)c1ccc(N(Cc2ccccc2F)C2CN3CCC2CC3)cc1 (stereo not drawn): 28.6

Entry CCN(CC)C(=O)c1ccc(N(Cc2cccc(F)c2)C2CN3CCC2CC3)cc1 (stereo not drawn) , tested on acetylcholine bromide-induced abdominal constriction response, has a reported MAIT % Inhibition of 18.2

# MAIT % Inhibition measured on acetylcholine bromide-induced abdominal constriction response for item CCN(CC)C(=O)c1ccc(N(Cc2cccc(Cl)c2)C2CN3CCC2CC3)cc1 (stereo not drawn) = 16.7

Tested on acetylcholine bromide-induced abdominal constriction response, the item `CCN(CC)C(=O)c1ccc(N(Cc2ccccc2)[C@H]2CN3CCC2CC3)cc1` showed MAIT % Inhibition equal to 57.1
